Cited source for all entries: PubChem BioAssay AID1918991

Tested on: 186277-243-T-J2-PDC complex spheroid growth
Assay: Anticancer human tumor 186277-243-T-J2-PDC patient-derived colon adenocarcinoma cell line growth inhibition [AhR]
Settings: second compound 1 µM; first compound 0.316 µM; stronger effect = lower value
parameter.measured: viability, T/C (%)
One number for each entry, in %.

COc1cc(C2c3cc4c(cc3C(OC3OC5COC(C)OC5C(O)C3O)C3COC(=O)C23)OCO4)cc(OC)c1O (stereo unspecified) + Cc1cncc(-c2nc(NCCc3c[nH]c4ccccc34)c3ncn(C(C)C)c3n2)c1 : 99.8
COc1ccc([C@@H](O)c2cc(-c3ncnc4cc(N5CCOCC5)ccc34)c(F)cc2Cl)nn1 + Cc1ccccc1N=Nc1ccc(NC(=O)c2ccnn2C)c(C)c1 : 101

State recorded viability, T/C for all listed compounds.
1. NS(=O)(=O)OCC1CC(n2ccc3c(NC4CCc5ccccc54)ncnc32)CC1O (stereo unspecified) + Cc1cncc(-c2nc(NCCc3c[nH]c4ccccc34)c3ncn(C(C)C)c3n2)c1
2. COc1cc(C2c3cc4c(cc3C(OC3OC5COC(C)OC5C(O)C3O)C3COC(=O)C23)OCO4)cc(OC)c1O (stereo unspecified) + Cc1ccccc1N=Nc1ccc(NC(=O)c2ccnn2C)c(C)c1
3. CC(C)c1c(-c2ccccc2)nc2c(C#N)c[nH]n2c1=O + Cc1cncc(-c2nc(NCCc3c[nH]c4ccccc34)c3ncn(C(C)C)c3n2)c1
4. COc1cc(Nc2ncc3c(n2)-c2ccc(Cl)cc2C(c2c(F)cccc2OC)=NC3)ccc1C(=O)O + Cc1cncc(-c2nc(NCCc3c[nH]c4ccccc34)c3ncn(C(C)C)c3n2)c1
5. CC1(C)CCC(CN2CCN(c3ccc(C(=O)NS(=O)(=O)c4ccc(NCC5CCOCC5)c([N+](=O)[O-])c4)c(Oc4cnc5[nH]ccc5c4)c3)CC2)=C(c2ccc(Cl)cc2)C1 + Cc1cncc(-c2nc(NCCc3c[nH]c4ccccc34)c3ncn(C(C)C)c3n2)c1
6. NS(=O)(=O)OCC1CC(n2ccc3c(NC4CCc5ccccc54)ncnc32)CC1O (stereo unspecified) + CC(CO)NC(=O)c1cc(-c2ccc(Cl)cc2)nn(-c2cnn(C)c2)c1=O

Output:
67.6
144
98.5
74.4
97.4
22.1

Go through the items and report each one's viability, T/C.
1. O=C(C=Cc1cccc(S(=O)(=O)Nc2ccccc2)c1)NO + Cc1cncc(-c2nc(NCCc3c[nH]c4ccccc34)c3ncn(C(C)C)c3n2)c1
2. COc1ccc([C@@H](O)c2cc(-c3ncnc4cc(N5CCOCC5)ccc34)c(F)cc2Cl)nn1 + Cc1cncc(-c2nc(NCCc3c[nH]c4ccccc34)c3ncn(C(C)C)c3n2)c1
3. COc1cc(C2c3cc4c(cc3C(OC3OC5COC(C)OC5C(O)C3O)C3COC(=O)C23)OCO4)cc(OC)c1O (stereo unspecified) + CC(CO)NC(=O)c1cc(-c2ccc(Cl)cc2)nn(-c2cnn(C)c2)c1=O

Output:
86.8
113
42.6

====

System: 186277-243-T-J2-PDC complex spheroid growth
Experiment: Anticancer human tumor 186277-243-T-J2-PDC cell line growth inhibition [AhR];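 further: spheroids exposed to compounds for seven days before the viability read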
Conditions: curve of first compound; second compound 10 µM
pIC50: −log10 of the molar value.
Binning of pIC50 into classes: class 1 = under 6, class 2 = from 6 up to 7, class 3 = 7 and over

Observe how each entry below is paired with its result.
Nc1ncn(C2CC(O)C(CO)O2)c(=O)n1 (centres undefined) + Cc1ccccc1N=Nc1ccc(NC(=O)c2ccnn2C)c(C)c1 : class 1
O=C(c1cc(Cc2n[nH]c(=O)c3ccccc23)ccc1F)N1CCN(C(=O)C2CC2)CC1 + CC(CO)NC(=O)c1cc(-c2ccc(Cl)cc2)nn(-c2cnn(C)c2)c1=O : class 1
Nc1ccccc1NC(=O)c1ccc(CNC(=O)OCc2cccnc2)cc1 + CC(CO)NC(=O)c1cc(-c2ccc(Cl)cc2)nn(-c2cnn(C)c2)c1=O : class 2

Input: Assign a bin to CCc1c2c(nc3ccc(O)cc13)-c1cc3c(c(=O)n1C2)COC(=O)[C@]3(O)CC + CC(CO)NC(=O)c1cc(-c2ccc(Cl)cc2)nn(-c2cnn(C)c2)c1=O
Output: class 3

Input: How about O=C(C=Cn1cnc(-c2cc(C(F)(F)F)cc(C(F)(F)F)c2)n1)NNc1cnccn1 + Cc1ccccc1N=Nc1ccc(NC(=O)c2ccnn2C)c(C)c1 ?
Output: class 2

Input: Also CC(C)CC(NC(=O)C(Cc1ccccc1)NC(=O)c1cnccn1)B(O)O (centres undefined) + Cc1ccccc1N=Nc1ccc(NC(=O)c2ccnn2C)c(C)c1 ?
Output: class 3

Input: For COc1cccc2c1C(=O)c1c(O)c3c(c(O)c1C2=O)CC(O)(C(=O)CO)CC3OC1CC(N)C(O)C(C)O1 (centres undefined) + Cc1cncc(-c2nc(NCCc3c[nH]c4ccccc34)c3ncn(C(C)C)c3n2)c1 then?
Output: class 3

Input: CC1COCCN1c1cc(-c2ccnn2C)c2ccnc(-c3ccn[nH]3)c2n1 (centres undefined) + CC(CO)NC(=O)c1cc(-c2ccc(Cl)cc2)nn(-c2cnn(C)c2)c1=O ?
Output: class 3

Input: One more compound: CC(C)CC(NC(=O)C(Cc1ccccc1)NC(=O)c1cnccn1)B(O)O (centres undefined) + CC(CO)NC(=O)c1cc(-c2ccc(Cl)cc2)nn(-c2cnn(C)c2)c1=O
Output: class 3
